# TARGET_OR_TEST_SYSTEM: PTHR1 (Homo sapiens)
# Sequence (Q03431 27-593): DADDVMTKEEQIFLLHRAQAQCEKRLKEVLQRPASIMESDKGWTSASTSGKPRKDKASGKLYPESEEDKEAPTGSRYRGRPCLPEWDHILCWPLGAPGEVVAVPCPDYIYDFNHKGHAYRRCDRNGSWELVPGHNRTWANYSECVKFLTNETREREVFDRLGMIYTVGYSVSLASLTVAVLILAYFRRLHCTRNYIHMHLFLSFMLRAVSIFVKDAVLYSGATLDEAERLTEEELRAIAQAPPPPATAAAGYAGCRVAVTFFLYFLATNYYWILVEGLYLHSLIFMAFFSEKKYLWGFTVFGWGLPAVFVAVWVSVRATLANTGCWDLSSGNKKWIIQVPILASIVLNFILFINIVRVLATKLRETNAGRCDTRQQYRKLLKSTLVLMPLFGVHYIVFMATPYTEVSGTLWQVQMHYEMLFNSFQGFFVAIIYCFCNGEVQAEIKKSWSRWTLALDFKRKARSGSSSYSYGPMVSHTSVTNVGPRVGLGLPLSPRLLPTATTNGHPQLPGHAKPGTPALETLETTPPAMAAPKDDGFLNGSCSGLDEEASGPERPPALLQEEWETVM
# EXPERIMENTAL_PROTOCOL: cAMP accumulation assay (HTRF) in CHO-K1/Ga15/PTHR1 cells
# Assay type: cell-based
# Parameters: host or cells: CHO-K1 (recombinant line CHO-K1/Ga15/PTHR1)
# CONDITION_DESCRIPTION: cAMP accumulation, fitted curve slope; replicate plates
Where no end group is shown, it is not given here.
List of −log10Slope values.
Just the number.

These recorded examples may help you get a feel for the data.
>>> measurement("GVAEIQLMHDIPVIRAEYELREMLLRLLEEIF [Peptide R2-3]")
"−8.5715"
>>> measurement("AVAEIQLMHQRAKWLNELRLKEEMRKILEDVY [Peptide R2-33]")
"−17.9495"
>>> measurement("AVAEIQLMHQRAKWELLEELLKILLELLKEYI [Peptide R2-38]")
"−7.566"
>>> measurement("GVAMLQILHDKAKVRAEYELREMLLRLLEEIF [Peptide R2-11]")
"−11.3552"
>>> measurement("GVAELQLMHFRALLRAEYELREMLLRLLEEIF [Peptide R2-7]")
"−0.9597"
>>> measurement("GIAVLTILDLRAKLRAEYELREMLLRLLEEIF [Peptide R2-14]")
2.196
>>> measurement("AVAEIQLMHQRAKWDVLIELAKLLAELLRRYH [Peptide R2-47]")
12
>>> measurement("AVAEIQLMHQRAKWDLLIELVKLLHELLKEYI [Peptide R2-40]")
"−2.205"

# query: −log10Slope of entry GVAMIQIMHDIAKIRAEYELREMLLRLLEEIF [Peptide R2-2] −3.889

# query: −log10Slope of entry AVAEIQLMHQRAKWRLEIELLKKLKEILKDVY [Peptide R2-34] −11.9049

# query: −log10Slope of entry GVAEIQLMVDLDIIRAEYELREMLLRLLEEIF [Peptide R2-12] −2.726

# query: −log10Slope of entry AVATIQLMTDIAKIRAEYELREMLLRLLEEIF [Peptide R2-6] −0.3341

# query: −log10Slope of entry AVAEIQLMHQRAKWKQELELEEKNKKILEDVY [Peptide R2-32] −14.3219

# query: −log10Slope of entry AVAEIQLMHQRAKWEIQEIGIKITLDLLQTLK [Peptide R2-41] −2.911

These entries and their values trace back to patent US12344649B2.
